The origin of these recorded values is patent US20160304615A1.

# tested system: T1, EGFR-mFc (human)
# T1 construct: Soluble dimeric protein
# protocol description: SPR 37C, receptor-capture; 37 C, receptor-capture format (EGFR-mFc captured)
# key: entry, value: kon
The answer is to be given in M⁻¹ s⁻¹; state only the numeric part.

INSERT INTO results (binder, experimental_result) VALUES
  ('H1H1913N (antibody, human IgG1, V domains shown, Human IgG1 Fc; also called H3M1913N (same variable domains)) VH: QVQLQQWGAGLLKPSETLSLTCAVYGGSFSGDYWSWIRQSPGKGLEWIGEINHSGSTNYNPSLKSRVTISIDTSKNQFSLKLSSVTAADTAVYYCARGGGDYYYGMDVWGLGTTVTVSS VL: AIQMTQSPSSLSASVGDRVTITCRASQGIGNDLGWYQQKPGKAPNLLIYATSSLQSGVPSRFSGSGSGTDFTLTISSLQPEDFATYYCLQDYNYPWTFGQGTKVEIK', 5930),
  ('H1H1912N (antibody, human IgG1, V domains shown, Human IgG1 Fc; also called H2M1912N (same variable domains)) VH: EVQLVESGGGLVQPGRSLRLSCAASGFTFDDYAMHWVRQVPGKGLEWVSGISWNSGSIGYADSVKGRFTISRDNAKNSLYLQMNSLRAEDTALYYCAKDIHDYGKDYYYYYGMDVWGQGTTVTVSS VL: EIALTQSPGTLSLSPGERATLSCRASQSVSSTYLAWYQQKPGQAPRLLIYGASSRATGIPDRFSGSGSGTDFTLTISRLEPEDFAVYYCQQYDSSPITFGQGTRLEIK', 39900),
  ('H1H1915N (antibody, human IgG1, V domains shown, Human IgG1 Fc; also called H2M1915N (same variable domains)) VH: QVQLVESGGGVVQPGRSLRLSCAASGFTFSAYAMHWVRQAPGKGLEWVAVIWYDGSNKNYADSVKGRFTVSRDNSKNTLYLEMNSLRAEDTAVYYCARDLMVGVTNYWGQGTLVTVST VL: DVVMTQSPLSLPVALGQPASISCRSSQSLVYTDGNTYLNWFHQRPGQSPRRLIYKVSNRDSGVPDRFTGSGSGTDFTLKISRVEAEDVGVFYCMQGSHWPPYTFGQGTKLEIK', 43500);

Field: next binder
Exam item: // lookup kon for H1H1911N (antibody, human IgG1, V domains shown, Human IgG1 Fc; also called H2M1911N (same variable domains)) VH: QVQLVESGGGVVQPGRSLRLSCAASGFTFSRYGIHWVRQAPGKGLEWVAVIWHDGSNKYYADSVKGRFTISRDNSKNTLYLQMTSLRAEDTAVYYCARDGLEIRDHYYYGMDVWGQGTTVTVSS VL: DIQMTQSPSTLSASVGDRVTITCRASQSTSSWLAWYQQKPGKAPTLLIYKASSLESGVPSKFSGSGSGTEFTLTISSLQPDDFATYYCQQYNRYSRTFGQGTKVEIK
Marked response: 7770
